Measured inhibition at 10 µM values are reported for all entries that follow.
Target or system: hERG (KCNH2) (Homo sapiens, UniProt Q12809)
Sequence (Q12809 whole entry): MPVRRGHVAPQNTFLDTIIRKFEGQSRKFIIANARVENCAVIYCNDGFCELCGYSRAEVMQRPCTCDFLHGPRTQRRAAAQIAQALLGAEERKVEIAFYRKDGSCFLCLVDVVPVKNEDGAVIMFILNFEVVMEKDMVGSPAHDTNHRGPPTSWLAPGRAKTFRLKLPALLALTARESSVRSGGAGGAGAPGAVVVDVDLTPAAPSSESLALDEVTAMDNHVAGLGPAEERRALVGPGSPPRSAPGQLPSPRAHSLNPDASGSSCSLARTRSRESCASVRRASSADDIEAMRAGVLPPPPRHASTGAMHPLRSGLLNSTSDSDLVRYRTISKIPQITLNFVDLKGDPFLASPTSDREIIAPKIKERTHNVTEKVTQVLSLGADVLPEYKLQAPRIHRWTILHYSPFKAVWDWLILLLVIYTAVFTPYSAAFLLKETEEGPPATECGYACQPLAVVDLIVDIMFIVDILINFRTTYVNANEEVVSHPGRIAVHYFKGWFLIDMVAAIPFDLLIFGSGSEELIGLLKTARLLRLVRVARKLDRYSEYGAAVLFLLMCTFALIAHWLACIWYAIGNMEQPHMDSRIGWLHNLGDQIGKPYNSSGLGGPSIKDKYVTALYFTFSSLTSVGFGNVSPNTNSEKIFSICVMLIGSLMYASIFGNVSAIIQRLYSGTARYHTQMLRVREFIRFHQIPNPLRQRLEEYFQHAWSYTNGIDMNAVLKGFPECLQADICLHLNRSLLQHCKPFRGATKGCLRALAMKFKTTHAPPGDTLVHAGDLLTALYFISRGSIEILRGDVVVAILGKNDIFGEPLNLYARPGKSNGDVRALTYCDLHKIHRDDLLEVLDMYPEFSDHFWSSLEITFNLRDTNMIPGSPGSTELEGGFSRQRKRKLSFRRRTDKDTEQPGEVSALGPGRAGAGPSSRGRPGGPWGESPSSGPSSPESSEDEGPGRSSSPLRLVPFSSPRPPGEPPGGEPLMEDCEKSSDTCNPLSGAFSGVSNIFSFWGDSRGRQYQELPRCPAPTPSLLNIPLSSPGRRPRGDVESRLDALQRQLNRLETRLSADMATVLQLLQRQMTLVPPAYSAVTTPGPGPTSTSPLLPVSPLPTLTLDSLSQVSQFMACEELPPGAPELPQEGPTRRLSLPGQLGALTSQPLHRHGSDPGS
Test details: Inhibition of human ERG at 10 uM by cell-based electrophysiology assay
Express the result in % but write the number alone.

[ask] Entry `Cc1cc(CN2CCN(c3c(Cl)cnc4[nH]c(-c5ccc(N6CCN(C)CC6)cc5F)nc34)CC2)no1` has what inhibition at 10 µM?
[reply] 81

[ask] Entry `CCn1cc(-c2nc3ncc(Cl)c(N4CCN(Cc5cc(C)on5)CC4)c3[nH]2)cn1` has what inhibition at 10 µM?
[reply] 51

[ask] Entry `Cc1nn(C)cc1-c1nc2c(N3CCN(Cc4ncn(C)n4)CC3)c(Cl)cnc2[nH]1` has what inhibition at 10 µM?
[reply] 14

* * *

Target or system: hERG (KCNH2) (Homo sapiens, UniProt Q12809)
Test details: Inhibition of human ERG at 10 uM by cell-based electrophysiology assay
Measured inhibition at 10 µM values are reported for all entries that follow.
Express the result in % but write the number alone.

{"Substance smiles": "Cc1cc(CN2CCN(c3c(Cl)cnc4[nH]c(-c5cccc(OCCN(C)C)c5)nc34)CC2)no1", "Observation type": "inhibition at 10 µM", "Recorded result": 88}
{"Substance smiles": "COCCN1CCN(c2ccc(-c3nc4ncc(Br)c(N5CCN(Cc6cc(C)on6)CC5)c4[nH]3)cc2)CC1", "Observation type": "inhibition at 10 µM", "Recorded result": 54}
{"Substance smiles": "Cc1nn(C)cc1-c1nc2ncc(Cl)c(N3CCN(Cc4nonc4C)CC3)c2[nH]1", "Observation type": "inhibition at 10 µM", "Recorded result": 50}
{"Substance smiles": "CC(=O)N1CCN(c2ccc(-c3nc4ncc(Br)c(N5CCN(Cc6cc(C)on6)CC5)c4[nH]3)cc2)CC1", "Observation type": "inhibition at 10 µM", "Recorded result": 92}
{"Substance smiles": "CCN1CCN(c2ccc(-c3nc4c(N5CCN(Cc6cc(C)on6)CC5)c(Cl)cnc4[nH]3)cc2)CC1", "Observation type": "inhibition at 10 µM", "Recorded result": 68}

[ask] Entry `Cc1cc(CN2CCN(c3c(Cl)cnc4nc(-c5cccc(CN(C)C)c5)[nH]c34)CC2)no1` has what inhibition at 10 µM?
[reply] 85

[ask] Entry `Cc1cc(CN2CCN(c3c(Cl)cnc4nc(-c5cccc(CN6CCOCC6)c5)[nH]c34)CC2)no1` has what inhibition at 10 µM?
[reply] 15

[ask] Entry `Cc1cc(CN2CCN(c3c(Cl)cnc4[nH]c(-c5cnn(CC(F)F)c5)nc34)CC2)no1` has what inhibition at 10 µM?
[reply] 82

[ask] Entry `Cc1nn(C)cc1-c1nc2c(N3CCN(Cc4cncnc4)CC3)c(Cl)cnc2[nH]1` has what inhibition at 10 µM?
[reply] 32

[ask] Entry `Cc1cc(CN2CCN(c3c(Br)cnc4nc(-c5ccc(N6CCN(C)CC6)cc5)[nH]c34)CC2)no1` has what inhibition at 10 µM?
[reply] 75

[ask] Entry `Cc1nn(C)cc1-c1nc2ncc(Cl)c(N3CCN(Cc4cnccn4)CC3)c2[nH]1` has what inhibition at 10 µM?
[reply] 23

[ask] Entry `Cc1cc(CN2CCN(c3c(Cl)cnc4[nH]c(-c5cnn(C(C)C)c5)nc34)CC2)no1` has what inhibition at 10 µM?
[reply] 71

[ask] Entry `Cc1cc(CN2CCN(c3c(Cl)cnc4nc(-c5ccc(N6CCN(C)CC6)c(F)c5)[nH]c34)CC2)no1` has what inhibition at 10 µM?
[reply] 37
